Assignment: determine reported kon for the given binders.
# Target Entity: T1, cynomolgus monkey CD137 (cynomolgus monkey, UniProt Q07011 24-186 (human entry), limits assumed)
# T1 construct: Soluble analyte in the Biacore assay; also called cyno CD137
# T1 chain: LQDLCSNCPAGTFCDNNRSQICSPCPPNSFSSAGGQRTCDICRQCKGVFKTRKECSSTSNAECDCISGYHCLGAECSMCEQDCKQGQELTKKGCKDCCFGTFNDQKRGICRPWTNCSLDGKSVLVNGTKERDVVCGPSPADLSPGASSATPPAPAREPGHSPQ
# Test Description: SPR Biacore T200, IgG captured on protein A, antigen as analyte, 25 C;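 also: antigens flowed over a CM3 chip for 120 s association, KD derived from ka and kd, running buffer (ACES, NaCl, Tween20, pH 7.4) served as blank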
Use M⁻¹ s⁻¹ as the unit, but write only the number.

Bench note: what kon did dBBDu_186 / dBBDu_L108 (antibody, human IgG1, V domains shown, Tested as IgG (human IgG1 constant region, kappa light chain); also called dBBDu186/L108) VH: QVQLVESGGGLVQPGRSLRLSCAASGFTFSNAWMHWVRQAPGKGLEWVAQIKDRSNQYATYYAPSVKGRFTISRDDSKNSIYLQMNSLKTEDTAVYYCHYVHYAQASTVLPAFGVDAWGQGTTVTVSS VL: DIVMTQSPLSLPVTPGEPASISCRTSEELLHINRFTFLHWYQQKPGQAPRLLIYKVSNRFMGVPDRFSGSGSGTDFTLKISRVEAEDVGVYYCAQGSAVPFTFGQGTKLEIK show?
225

Now try dBBDu_167 / dBBDu_L091 (antibody, human IgG1, V domains shown, Tested as IgG (human IgG1 constant region, kappa light chain); also called dBBDu167/L091) VH: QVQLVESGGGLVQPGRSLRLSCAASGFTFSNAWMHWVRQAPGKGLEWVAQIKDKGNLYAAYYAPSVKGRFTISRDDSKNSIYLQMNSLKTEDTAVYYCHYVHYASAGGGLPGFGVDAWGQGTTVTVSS VL: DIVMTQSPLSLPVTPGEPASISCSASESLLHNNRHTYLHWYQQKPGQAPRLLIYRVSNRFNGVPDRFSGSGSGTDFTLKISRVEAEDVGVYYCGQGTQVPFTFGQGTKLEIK .
2430
